Reference source for all entries: paper PMC9798004

# study_system: UniProtKB Q9UKP6
# Sequence (Q9UKP6 whole entry): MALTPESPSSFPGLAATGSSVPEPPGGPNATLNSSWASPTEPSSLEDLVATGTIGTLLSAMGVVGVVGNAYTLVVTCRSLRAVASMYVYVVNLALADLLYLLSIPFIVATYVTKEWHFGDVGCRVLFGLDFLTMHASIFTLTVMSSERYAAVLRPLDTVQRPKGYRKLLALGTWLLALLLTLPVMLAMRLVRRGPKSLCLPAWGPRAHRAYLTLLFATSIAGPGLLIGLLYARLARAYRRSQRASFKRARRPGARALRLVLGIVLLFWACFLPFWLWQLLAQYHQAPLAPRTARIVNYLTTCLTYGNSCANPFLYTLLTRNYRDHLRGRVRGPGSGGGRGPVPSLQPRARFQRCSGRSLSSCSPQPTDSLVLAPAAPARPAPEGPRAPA
# experiment_notes: PathHunter β-arrestin assay
# test_settings: follow-up assays, control antagonist
readout_name: IC50 (nM)
Give the quantity in nM, number only.

Incoming: Specify IC50 for "COc1cc(Br)c(S(=O)(=O)Nc2ccc(Cl)c(O[C@@H]3CCN(C)C3)c2)cc1OC" and stop.
Outgoing: 122

----------
# study_system: CCR4 (Homo sapiens, UniProt P51679)
# Sequence (P51679 1-360): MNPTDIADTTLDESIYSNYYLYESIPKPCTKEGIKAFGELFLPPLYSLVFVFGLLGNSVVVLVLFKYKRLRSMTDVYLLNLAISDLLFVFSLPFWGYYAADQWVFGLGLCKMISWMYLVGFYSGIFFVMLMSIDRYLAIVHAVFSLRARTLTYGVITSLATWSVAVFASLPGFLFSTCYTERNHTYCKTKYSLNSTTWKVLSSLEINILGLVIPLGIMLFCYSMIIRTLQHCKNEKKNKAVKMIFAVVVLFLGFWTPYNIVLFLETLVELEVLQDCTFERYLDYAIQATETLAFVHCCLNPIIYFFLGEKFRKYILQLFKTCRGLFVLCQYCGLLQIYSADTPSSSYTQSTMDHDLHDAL
# experiment_notes: PathHunter β-arrestin assay
# Type: cell-based
# test_settings: follow-up assays, control antagonist
Where a name gives a salt, the structure may show the parent alone.
readout_name: pIC50
Give only the number. pIC50 is defined as minus log10 of concentration in molar units.

Incoming: Specify pIC50 for COc1cc2nc(N3CCC(N4CCCCC4)CC3)nc(NC3CCCCCC3)c2cc1OC [C 021 dihydrochloride] and stop.
Outgoing: 8.59

----------
# study_system: PTGER4 (Homo sapiens)
# Sequence (P35408 whole entry): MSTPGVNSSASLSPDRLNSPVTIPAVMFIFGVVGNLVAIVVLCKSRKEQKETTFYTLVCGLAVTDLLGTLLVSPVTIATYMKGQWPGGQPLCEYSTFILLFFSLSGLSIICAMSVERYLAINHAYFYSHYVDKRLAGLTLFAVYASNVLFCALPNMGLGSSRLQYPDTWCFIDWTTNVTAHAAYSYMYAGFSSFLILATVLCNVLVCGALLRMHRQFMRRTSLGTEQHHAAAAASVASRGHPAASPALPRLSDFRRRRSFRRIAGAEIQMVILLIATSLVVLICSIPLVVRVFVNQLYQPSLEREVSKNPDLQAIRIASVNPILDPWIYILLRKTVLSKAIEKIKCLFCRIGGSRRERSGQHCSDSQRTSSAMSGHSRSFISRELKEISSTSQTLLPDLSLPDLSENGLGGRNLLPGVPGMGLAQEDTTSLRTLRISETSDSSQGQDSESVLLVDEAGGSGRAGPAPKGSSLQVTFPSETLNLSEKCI
# experiment_notes: PathHunter β-arrestin assay
# Format: cell-based
# test_settings: antagonist mode vs EC80 of control agonist, 10-point curve
readout_name: IC50 (µM)
Give the quantity in µM, number only.

Incoming: Report value: IC50, system: PTGER4 (Homo sapiens), molecule: "COC(=O)[C@@H](NC(=O)c1nn(Cc2ccc(F)cc2)c2ccccc12)C(C)C"
Outgoing: 3.13

----------
# study_system: MC3R (Homo sapiens)
# Sequence (P41968 whole entry): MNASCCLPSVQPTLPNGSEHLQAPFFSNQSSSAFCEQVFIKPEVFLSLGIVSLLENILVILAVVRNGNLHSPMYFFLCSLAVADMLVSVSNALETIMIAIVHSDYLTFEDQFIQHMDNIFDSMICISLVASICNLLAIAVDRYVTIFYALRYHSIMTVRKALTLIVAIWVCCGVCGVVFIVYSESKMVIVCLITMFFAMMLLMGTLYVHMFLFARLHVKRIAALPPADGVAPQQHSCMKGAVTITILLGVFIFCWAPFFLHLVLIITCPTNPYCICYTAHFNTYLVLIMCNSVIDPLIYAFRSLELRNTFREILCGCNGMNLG
# experiment_notes: PathHunter β-arrestin assay
# test_settings: antagonist mode vs EC80 of control agonist, 10-point curve
readout_name: pIC50
Give only the number. pIC50 is defined as minus log10 of concentration in molar units.

Incoming: Specify pIC50 for "COC(=O)[C@@H](NC(=O)c1nn(Cc2ccc(F)cc2)c2ccccc12)C(C)C" and stop.
Outgoing: 5.18

----------
# study_system: CALCRL-RAMP2 (Homo sapiens, UniProt O60895+Q16602)
# Sequence (Q16602 23-461): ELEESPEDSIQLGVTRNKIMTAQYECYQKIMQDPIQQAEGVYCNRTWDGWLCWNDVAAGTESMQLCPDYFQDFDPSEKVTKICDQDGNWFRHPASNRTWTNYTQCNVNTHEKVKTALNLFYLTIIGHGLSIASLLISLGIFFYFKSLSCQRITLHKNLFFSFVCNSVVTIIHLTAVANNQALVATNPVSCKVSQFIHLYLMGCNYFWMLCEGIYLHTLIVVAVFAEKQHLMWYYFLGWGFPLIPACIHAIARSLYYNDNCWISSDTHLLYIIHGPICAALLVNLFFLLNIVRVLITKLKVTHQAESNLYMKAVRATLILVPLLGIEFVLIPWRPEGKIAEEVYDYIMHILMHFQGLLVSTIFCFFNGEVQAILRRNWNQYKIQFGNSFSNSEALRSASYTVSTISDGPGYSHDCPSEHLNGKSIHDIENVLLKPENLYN
# Sequence (O60895 43-175 partner): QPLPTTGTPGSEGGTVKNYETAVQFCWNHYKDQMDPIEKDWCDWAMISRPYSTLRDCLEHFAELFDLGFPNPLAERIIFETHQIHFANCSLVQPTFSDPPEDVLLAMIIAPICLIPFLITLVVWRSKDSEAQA
# experiment_notes: PathHunter β-arrestin assay
# Assay type: cell-based
# test_settings: antagonist mode vs EC80 of control agonist, 10-point curve
readout_name: pIC50
Give only the number. pIC50 is defined as minus log10 of concentration in molar units.

Incoming: Specify pIC50 for "COC(=O)[C@@H](NC(=O)c1nn(Cc2ccc(F)cc2)c2ccccc12)C(C)C" and stop.
Outgoing: 5.00

----------
# study_system: OXTR (Homo sapiens)
# experiment_notes: PathHunter β-arrestin assay
# Assay type: cell-based
# test_settings: follow-up assays, control antagonist
readout_name: IC50 (nM)
Give the quantity in nM, number only.

Incoming: Specify IC50 for "Cc1ccccc1N1CCN(S(=O)(=O)C[C@]23CC[C@H](C[C@@H]2NC(=O)[C@@H](N)CCS(C)(=O)=O)C3(C)C)CC1" and stop.
Outgoing: 7.39

----------
# study_system: CNR1 (CB1) (Homo sapiens, UniProt P21554)
# Sequence (P21554 whole entry): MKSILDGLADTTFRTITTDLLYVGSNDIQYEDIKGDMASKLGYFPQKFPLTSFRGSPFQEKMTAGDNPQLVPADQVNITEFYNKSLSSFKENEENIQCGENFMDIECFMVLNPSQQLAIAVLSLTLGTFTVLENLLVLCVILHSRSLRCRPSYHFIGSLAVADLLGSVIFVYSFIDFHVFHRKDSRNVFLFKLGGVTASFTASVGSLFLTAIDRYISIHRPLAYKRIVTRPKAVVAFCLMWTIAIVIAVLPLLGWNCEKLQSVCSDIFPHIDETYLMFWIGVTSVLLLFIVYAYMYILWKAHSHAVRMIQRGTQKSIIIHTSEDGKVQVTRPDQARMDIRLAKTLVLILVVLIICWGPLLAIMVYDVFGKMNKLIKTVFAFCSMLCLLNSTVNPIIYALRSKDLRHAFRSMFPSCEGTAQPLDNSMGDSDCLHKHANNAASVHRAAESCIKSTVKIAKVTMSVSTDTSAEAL
# experiment_notes: PathHunter β-arrestin assay
# test_settings: agonist mode; data above 1 μM excluded from curve fitting
readout_name: pEC50
Give only the number. pEC50 is defined as minus log10 of concentration in molar units.

Incoming: Specify pEC50 for "COC(=O)[C@@H](NC(=O)c1nn(Cc2ccc(F)cc2)c2ccccc12)C(C)C" and stop.
Outgoing: 7.37

----------
# study_system: CHRM3 (Homo sapiens)
# Sequence (P20309 whole entry): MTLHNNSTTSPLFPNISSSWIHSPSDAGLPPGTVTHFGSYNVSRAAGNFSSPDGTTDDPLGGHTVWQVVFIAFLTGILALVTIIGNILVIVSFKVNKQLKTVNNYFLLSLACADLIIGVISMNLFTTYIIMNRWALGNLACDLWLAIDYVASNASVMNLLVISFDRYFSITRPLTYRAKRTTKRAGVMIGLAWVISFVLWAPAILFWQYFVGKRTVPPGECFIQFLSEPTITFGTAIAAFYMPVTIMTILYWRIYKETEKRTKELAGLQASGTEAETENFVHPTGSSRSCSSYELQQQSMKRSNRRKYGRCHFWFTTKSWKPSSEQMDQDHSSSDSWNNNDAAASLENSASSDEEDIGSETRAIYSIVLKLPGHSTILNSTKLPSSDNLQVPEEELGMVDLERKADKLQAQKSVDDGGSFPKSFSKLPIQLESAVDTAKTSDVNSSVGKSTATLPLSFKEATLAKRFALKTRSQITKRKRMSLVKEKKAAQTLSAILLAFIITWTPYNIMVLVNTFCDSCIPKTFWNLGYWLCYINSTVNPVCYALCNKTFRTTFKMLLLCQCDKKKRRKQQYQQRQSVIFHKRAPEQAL
readout_name: pIC50
Give only the number. pIC50 is defined as minus log10 of concentration in molar units.

Incoming: Report value: pIC50, system: CHRM3 (Homo sapiens), compound: COC(=O)[C@@H](NC(=O)c1nn(Cc2ccc(F)cc2)c2ccccc12)C(C)C [AMB-FUBINACA]
Outgoing: 5.16

----------
# study_system: CALCR-RAMP2 (Homo sapiens, UniProt O60895+P30988)
# Sequence (P30988 25-474): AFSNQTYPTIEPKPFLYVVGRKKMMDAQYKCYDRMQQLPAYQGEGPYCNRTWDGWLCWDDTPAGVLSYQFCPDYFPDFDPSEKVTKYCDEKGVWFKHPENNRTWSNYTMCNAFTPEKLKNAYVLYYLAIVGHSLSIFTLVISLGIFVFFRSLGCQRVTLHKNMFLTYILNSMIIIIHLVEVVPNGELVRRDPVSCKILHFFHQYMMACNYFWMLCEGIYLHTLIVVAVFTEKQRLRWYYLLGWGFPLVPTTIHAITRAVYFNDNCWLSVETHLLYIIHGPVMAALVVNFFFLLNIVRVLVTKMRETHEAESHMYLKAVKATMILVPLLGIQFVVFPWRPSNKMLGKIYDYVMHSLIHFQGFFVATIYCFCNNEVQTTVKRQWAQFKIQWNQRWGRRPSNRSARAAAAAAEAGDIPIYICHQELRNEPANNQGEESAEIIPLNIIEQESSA
# Sequence (O60895 43-175 partner): as the sequence (O60895 43-175 partner) above
# experiment_notes: PathHunter β-arrestin assay
# test_settings: antagonist mode vs EC80 of control agonist, 10-point curve
readout_name: pIC50
Give only the number. pIC50 is defined as minus log10 of concentration in molar units.

Incoming: Specify pIC50 for "COC(=O)[C@@H](NC(=O)c1nn(Cc2ccc(F)cc2)c2ccccc12)C(C)C" and stop.
Outgoing: 4.97

----------
# study_system: P2RY6 (Homo sapiens, UniProt Q15077)
# Sequence (Q15077 whole entry): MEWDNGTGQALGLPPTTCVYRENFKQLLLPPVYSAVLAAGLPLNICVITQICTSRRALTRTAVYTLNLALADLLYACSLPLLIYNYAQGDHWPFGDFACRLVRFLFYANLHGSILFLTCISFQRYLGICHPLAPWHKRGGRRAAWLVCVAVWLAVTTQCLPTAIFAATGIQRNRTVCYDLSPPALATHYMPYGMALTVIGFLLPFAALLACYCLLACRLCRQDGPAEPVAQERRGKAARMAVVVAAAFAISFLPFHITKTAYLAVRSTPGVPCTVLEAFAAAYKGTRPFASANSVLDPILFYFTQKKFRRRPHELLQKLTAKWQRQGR
# experiment_notes: PathHunter β-arrestin assay
# test_settings: follow-up assays, control antagonist
readout_name: pIC50
Give only the number. pIC50 is defined as minus log10 of concentration in molar units.

Incoming: Specify pIC50 for S=C=Nc1cccc(NC(=S)NCCCCNC(=S)Nc2cccc(N=C=S)c2)c1 [MRS 2578] and stop.
Outgoing: 5.60

----------
# study_system: ADORA3 (Homo sapiens)
# Construct: host or cells: CHO
# Sequence (P0DMS8 1-318): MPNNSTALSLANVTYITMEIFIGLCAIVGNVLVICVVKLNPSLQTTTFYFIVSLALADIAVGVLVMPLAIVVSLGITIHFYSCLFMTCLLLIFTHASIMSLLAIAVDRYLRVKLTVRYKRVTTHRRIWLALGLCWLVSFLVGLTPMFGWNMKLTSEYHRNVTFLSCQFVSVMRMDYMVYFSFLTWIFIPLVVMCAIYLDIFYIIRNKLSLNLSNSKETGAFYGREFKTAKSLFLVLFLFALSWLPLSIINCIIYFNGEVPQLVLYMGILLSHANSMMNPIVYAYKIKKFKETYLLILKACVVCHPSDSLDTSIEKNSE
# experiment_notes: PathHunter β-arrestin assay
# Assay type: cell-based
# test_settings: follow-up assays, control antagonist
readout_name: IC50 (nM)
Give the quantity in nM, number only.

Incoming: Specify IC50 for COc1ccccc1NC(=O)Nc1nc(-c2cccnc2)nc2ccccc12 [VUF 5574] and stop.
Outgoing: 3.73

----------
# study_system: OXTR (Homo sapiens, UniProt P30559)
# Sequence (P30559 whole entry): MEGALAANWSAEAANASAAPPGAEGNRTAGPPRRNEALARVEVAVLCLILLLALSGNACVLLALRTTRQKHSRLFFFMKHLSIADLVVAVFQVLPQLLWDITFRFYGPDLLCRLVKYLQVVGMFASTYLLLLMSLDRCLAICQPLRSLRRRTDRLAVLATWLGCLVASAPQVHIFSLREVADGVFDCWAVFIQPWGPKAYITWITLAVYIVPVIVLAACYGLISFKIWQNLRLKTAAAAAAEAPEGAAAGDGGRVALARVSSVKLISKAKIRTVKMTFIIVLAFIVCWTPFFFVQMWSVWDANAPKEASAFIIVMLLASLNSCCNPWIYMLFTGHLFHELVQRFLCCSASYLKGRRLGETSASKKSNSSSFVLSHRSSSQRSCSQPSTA
# experiment_notes: PathHunter β-arrestin assay
# Format: cell-based
# test_settings: antagonist mode vs EC80 of control agonist, 10-point curve
readout_name: pIC50
Give only the number. pIC50 is defined as minus log10 of concentration in molar units.

Incoming: Specify pIC50 for "COC(=O)[C@@H](NC(=O)c1nn(Cc2ccc(F)cc2)c2ccccc12)C(C)C" and stop.
Outgoing: 4.89
